Assay: Urinary pharmacokinetics after single oral dose of brigatinib 90 mg
Format: in vivo, human
Conditions: human, urine, oral, 90 mg, Normal Renal Function (n=8); read-out: CLR, Range
QUANTITY: CL renal

Return reported CL renal; argument: COc1cc(N2CCC(N3CCN(C)CC3)CC2)ccc1Nc1ncc(Cl)c(Nc2ccccc2P(C)(C)=O)n1
27.5 to 63.7 mL/min

---

Experiment: Plasma protein binding of brigatinib by rapid equilibrium dialysis (RED) of participants' plasma samples
Type: in vitro ADME, human
Conditions: human, plasma samples of dosed participants, patients with severe renal impairment; averaged over 2, 8, 24 h postdose; read-out: overall mean (SD) fraction unbound (converted)
QUANTITY: fraction unbound at 6 h
Answers are plain numbers.

Return reported fraction unbound at 6 h; argument: COc1cc(N2CCC(N3CCN(C)CC3)CC2)ccc1Nc1ncc(Cl)c(Nc2ccccc2P(C)(C)=O)n1
0.08

---

Assay: Urinary pharmacokinetics after single oral dose of brigatinib 90 mg
Format: in vivo, human
Conditions: human, urine, oral, 90 mg, Severe Renal Impairment (n=8); read-out: CLR, renal clearance, mean (SD)
QUANTITY: CL renal (mL/min)
Numbers only, in mL/min.

Return reported CL renal; argument: COc1cc(N2CCC(N3CCN(C)CC3)CC2)ccc1Nc1ncc(Cl)c(Nc2ccccc2P(C)(C)=O)n1 [brigatinib]
9.17
